Field: ELISA Signal [100 nM Fab]. Provide a value for each of the binders that follow.
# SUBJECT OF TEST: T1, Recombinant Human DLL4 (delta-like protein 4) (human, UniProt Q9NR61 27-524)
# T1 construct: Bought recombinant human DLL4 (R&D Systems Cat#1506-D4/CF); also called rHuman DLL4
# ASSAY METHOD TEXT: ELISA, DLL4-coated plate, 100 nM Fab
Please respond with just the number, no unit label.

Note down ELISA Signal [100 nM Fab] recorded for Fab VH5-51_IGHD5-18*01>3_IGHJ4*01 G100K/G104T & V3-4_IGLJ1*01 M94S (Fab, V domains shown, Fab; expressed with CH1 (His and Flag tags) and lambda CL from the expression plasmids; also called H:KT & M94S) VH: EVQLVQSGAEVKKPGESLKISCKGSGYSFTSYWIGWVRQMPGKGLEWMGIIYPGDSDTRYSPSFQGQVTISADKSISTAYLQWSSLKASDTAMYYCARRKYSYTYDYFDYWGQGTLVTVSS VL: QTVVTQEPSFSVSPGGTVTLTCGLSSGSVSTSYYPSWYQQTPGQAPRTLIYSTNTRSSGVPDRFSGSILGNKAALTITGAQADDESDYYCVLYSGSGISYVFGTGTKVTVL
0.02

Note down ELISA Signal [100 nM Fab] recorded for Fab VH5-51_IGHD5-18*01>3_IGHJ4*01 G100K/G104T & V3-4_IGLJ1*01 M94D (Fab, V domains shown, Fab; expressed with CH1 (His and Flag tags) and lambda CL from the expression plasmids; also called H:KT & M94D) VH: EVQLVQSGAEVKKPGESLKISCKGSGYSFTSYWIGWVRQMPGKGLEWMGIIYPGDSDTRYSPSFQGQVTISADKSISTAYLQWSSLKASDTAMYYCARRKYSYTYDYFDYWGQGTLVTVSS VL: QTVVTQEPSFSVSPGGTVTLTCGLSSGSVSTSYYPSWYQQTPGQAPRTLIYSTNTRSSGVPDRFSGSILGNKAALTITGAQADDESDYYCVLYDGSGISYVFGTGTKVTVL
0.01

Note down ELISA Signal [100 nM Fab] recorded for Fab VH5-51_IGHD5-18*01>3_IGHJ4*01 G100K/G104T & V3-4_IGLJ1*01 S96W (Fab, V domains shown, Fab; expressed with CH1 (His and Flag tags) and lambda CL from the expression plasmids; also called H:KT & S96W) VH: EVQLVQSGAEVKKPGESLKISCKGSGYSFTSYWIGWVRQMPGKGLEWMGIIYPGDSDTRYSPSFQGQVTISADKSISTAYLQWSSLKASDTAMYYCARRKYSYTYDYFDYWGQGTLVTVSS VL: QTVVTQEPSFSVSPGGTVTLTCGLSSGSVSTSYYPSWYQQTPGQAPRTLIYSTNTRSSGVPDRFSGSILGNKAALTITGAQADDESDYYCVLYMGWGISYVFGTGTKVTVL
0.02

Note down ELISA Signal [100 nM Fab] recorded for Fab VH5-51_IGHD5-18*01>3_IGHJ4*01 G100K/G104T & V3-4_IGLJ1*01 V91N (Fab, V domains shown, Fab; expressed with CH1 (His and Flag tags) and lambda CL from the expression plasmids; also called H:KT & V91N) VH: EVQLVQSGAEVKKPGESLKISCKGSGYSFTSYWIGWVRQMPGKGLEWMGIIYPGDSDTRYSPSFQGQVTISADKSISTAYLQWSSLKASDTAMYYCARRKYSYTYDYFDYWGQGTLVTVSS VL: QTVVTQEPSFSVSPGGTVTLTCGLSSGSVSTSYYPSWYQQTPGQAPRTLIYSTNTRSSGVPDRFSGSILGNKAALTITGAQADDESDYYCNLYMGSGISYVFGTGTKVTVL
0

Note down ELISA Signal [100 nM Fab] recorded for Fab VH5-51_IGHD5-18*01>3_IGHJ4*01 G100K/G104T & V3-4_IGLJ1*01 V91T (Fab, V domains shown, Fab; expressed with CH1 (His and Flag tags) and lambda CL from the expression plasmids; also called H:KT & V91T) VH: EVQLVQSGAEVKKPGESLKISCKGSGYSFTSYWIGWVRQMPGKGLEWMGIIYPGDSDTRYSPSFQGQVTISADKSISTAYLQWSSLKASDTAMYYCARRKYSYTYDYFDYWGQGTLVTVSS VL: QTVVTQEPSFSVSPGGTVTLTCGLSSGSVSTSYYPSWYQQTPGQAPRTLIYSTNTRSSGVPDRFSGSILGNKAALTITGAQADDESDYYCTLYMGSGISYVFGTGTKVTVL
0.01

Data provenance: patent US20120316071A1
